Reference source for all entries: ChEMBL document CHEMBL4813913

assay: Selectivity index, ratio of CC50 for mouse RAW264.7 cells to IC50 for amastigote stage of Leishmania amazonensis (MHOM/BR/73/M2269) infected in mouse RAW264.7 cells; assay type: toxicity, cell-based; conditions: read-out: Ratio CC50/IC50
PROPERTY LABEL: selectivity ratio

{"MOL SMILES": "CSc1nccc(-c2c(-c3ccc(F)cc3)nc3c(N)nccn23)n1", "RECORDED RESULT": "> 0.9"}
{"MOL SMILES": "CN(C)c1nccn2c(-c3ccnc(N)n3)c(-c3ccccc3)nc12", "RECORDED RESULT": 1.9}
{"MOL SMILES": "CN(C)c1nccn2c(-c3ccc4[nH]ncc4c3)c(-c3ccc(F)cc3)nc12", "RECORDED RESULT": 0.6}
{"MOL SMILES": "CSc1nccc(-c2c(-c3ccccc3)nc3c(N(C)C)nccn23)n1", "RECORDED RESULT": 5.6}
{"MOL SMILES": "CN(C)c1nccn2c(-c3ccncc3)c(-c3ccc(F)cc3)nc12", "RECORDED RESULT": 1.5}
{"MOL SMILES": "CN(C)c1nccn2c(-c3cnn(C)c3)c(-c3ccc(F)cc3)nc12", "RECORDED RESULT": 0.6}

Q: Return reported selectivity ratio; argument: CSc1nccc(-c2c(-c3ccccc3)nc3c(Cl)nccn23)n1
Result: 15.8

Q: Return reported selectivity ratio; argument: CCCCCCCCCCCCCCCCOP(=O)([O-])OCC[N+](C)(C)C
Result: 10.2

Q: Return reported selectivity ratio; argument: CN(C)c1nccn2c(-c3ccnc(N)n3)c(-c3ccc(F)cc3)nc12
Result: 6.9

Q: Return reported selectivity ratio; argument: CSc1nccc(-c2c(-c3ccc(F)cc3)nc3c(N(C)C)nccn23)n1
Result: 2.9

---

assay: Selectivity index, ratio of CC50 for human MRC5 cells to IC50 for amastigote stage of Leishmania amazonensis (MHOM/BR/73/M2269) infected in mouse RAW264.7 cells; type: toxicity, cell-based; conditions: read-out: Ratio CC50/IC50
PROPERTY LABEL: selectivity ratio
I only need the number, thanks.

Q: Return reported selectivity ratio; argument: CCCCCCCCCCCCCCCCOP(=O)([O-])OCC[N+](C)(C)C
Result: 8.7

---

test: Selectivity index, ratio of CC50 for mouse RAW264.7 cells to IC50 for amastigote stage of Leishmania major (MHOM/IL/81/BNI) infected in BALB/c mouse peritoneal macrophages; assay type: toxicity; details: read-out: Ratio CC50/IC50
PROPERTY LABEL: selectivity ratio
I only need the number, thanks.

Q: Return reported selectivity ratio; argument: CCCCCCCCCCCCCCCCOP(=O)([O-])OCC[N+](C)(C)C
Result: 29.9

---

test: Selectivity index, ratio of CC50 for human MRC5 cells to IC50 for amastigote stage of Leishmania infantum (MHOM/FR/2008/LEM5700) infected in mouse RAW264.7 cells; assay type: toxicity, cell-based; settings: read-out: Ratio CC50/IC50
PROPERTY LABEL: selectivity ratio
I only need the number, thanks.

Here is how some molecules turned out for selectivity ratio.
{"MOL SMILES": "CSc1nccc(-c2c(-c3ccc(F)cc3)nc3c(N(C)C)nccn23)n1", "selectivity ratio": 10.8}
{"MOL SMILES": "CN(C)c1nccn2c(-c3cnn(C)c3)c(-c3ccc(F)cc3)nc12", "selectivity ratio": 38.5}
{"MOL SMILES": "CN(C)c1nccn2c(-c3ccnc(N)n3)c(-c3ccc(F)cc3)nc12", "selectivity ratio": 15.2}

Shift focus to the following entry.
Q: Return reported selectivity ratio; argument: CSc1nccc(-c2c(-c3ccc(F)cc3)nc3c(N)nccn23)n1
Result: 1.5

---

Overview of recorded pIC50 for various molecules
system: Leishmania infantum; experiment: Antileishmanial activity against amastigote stage of Leishmania infantum (MHOM/FR/2008/LEM5700) infected in mouse RAW264.7 cells assessed as reduction in parasitic proliferation measured by SYBR Green 1 dye based fluorescence assay; format: functional, organism-based; settings: MHOM/FR/2008/LEM5700, RAW264.7
pIC50: −log10 of the molar value.

Here is how some molecules turned out for pIC50.
{"MOL SMILES": "CSc1nccc(-c2c(-c3ccc(F)cc3)nc3c(N)nccn23)n1", "pIC50": "< 4.90"}
{"MOL SMILES": "CN(C)c1nccn2c(-c3cncnc3)c(-c3ccc(F)cc3)nc12", "pIC50": "< 4.30"}
{"MOL SMILES": "CSc1nccc(-c2c(-c3ccc(F)cc3)nc3c(Cl)nccn23)n1", "pIC50": "< 4.00"}

Shift focus to the following entry.
Q: Return reported pIC50; argument: CN(C)c1nccn2c(-c3ccnc(N)n3)c(-c3ccccc3)nc12
Result: < 4.00

---

assay: Selectivity index, ratio of CC50 for human MRC5 cells to IC50 for amastigote stage of Leishmania infantum (MHOM/FR/2008/LEM5700) infected in mouse RAW264.7 cells; format: toxicity, cell-based; conditions: read-out: Ratio CC50/IC50
PROPERTY LABEL: selectivity ratio
I only need the number, thanks.

Here is how some compounds turned out for selectivity ratio.
{"MOL SMILES": "CCCCCCCCCCCCCCCCOP(=O)([O-])OCC[N+](C)(C)C", "selectivity ratio": 12.4}
{"MOL SMILES": "CSc1nccc(-c2c(-c3ccccc3)nc3c(Cl)nccn23)n1", "selectivity ratio": 17.3}
{"MOL SMILES": "CN(C)c1nccn2c(-c3ccncc3)c(-c3ccc(F)cc3)nc12", "selectivity ratio": 7.8}

Shift focus to the following entry.
Q: Return reported selectivity ratio; argument: CN(C)c1nccn2c(-c3ccc4[nH]ncc4c3)c(-c3ccc(F)cc3)nc12
Result: 2
